# Test details: Stability and biodistribution of prodrugs in vivo (HPLC of plasma and tissues)
# Parameters: species or system mice (CD-1 nude; BALB/C where indicated)
# Cond: mouse, liver, 50 mg/kg, LIVER, 180 min, 50 mg/kg i.p. or i.v., CD-1 nude mice; read-out: stability: percentage of material observed as intact prodrug, liver
Recorded endpoint: remaining at 3 h (%)
Give just the numeric value; % need not be written.

Task: Give its remaining at 3 h value. Item: Cc1nc2ccc3ccc(CNc4ccc5c(c4)CN([C@@H](CCC(=O)O)C(=O)N[C@@H](Cc4ccccc4)C(=O)O)C5=O)cc3c2c(=O)[nH]1 [Prodrug 2]
Result: 100

---

kcat values for the compounds below.
# Test system: 268gly
# Test details: Enzyme kinetics of prodrugs with 268gly mutant of human CPA1 (coupled assay)
# Assay type: biochemical
# Cond: 268gly; 25° C., pH 7.4
Give just the numeric value; s⁻¹ need not be written.

Here are 2 compounds together with their reported answers.
{"Compound": "CN(Cc1cnc2nc(N)nc(N)c2n1)c1ccc(C(=O)N[C@@H](CCC(=O)O)C(=O)N[C@@H](Cc2cccc(C(C)(C)C)c2)C(=O)O)cc1 [Prodrug 12]", "Assayed target": "268gly", "Numeric result": 0.81}
{"Compound": "CN(Cc1cnc2nc(N)nc(N)c2n1)c1ccc(C(=O)N[C@@H](CCC(=O)O)C(=O)N[C@@H](Cc2cccc(C3CCCC3)c2)C(=O)O)cc1", "Assayed target": "268gly", "Numeric result": 1.4}

Attention now turns to another entry.
Task: Give its kcat value. Item: CN(Cc1cnc2nc(N)nc(N)c2n1)c1ccc(C(=O)N[C@@H](CCC(=O)O)C(=O)N[C@@H](Cc2ccccc2C2CCCC2)C(=O)O)cc1 [Prodrug 8]
Result: 2.35

---

# Test details: Stability and biodistribution of prodrugs in vivo (HPLC of plasma and tissues)
# Parameters: species or system mice (CD-1 nude; BALB/C where indicated)
# Cond: mouse, kidney, 50 mg/kg, KIDNEY, 120 min, 50 mg/kg i.p. or i.v., CD-1 nude mice; read-out: stability: percentage of material observed as intact prodrug, kidney
Recorded endpoint: remaining at 2 h (%)
Give just the numeric value; % need not be written.

{"Compound": "CN(Cc1cnc2nc(N)nc(N)c2n1)c1ccc(C(=O)N[C@@H](CCC(=O)O)C(=O)N[C@@H](Cc2ccccc2C(=O)O)C(=O)O)cc1 [Prodrug 7]", "Unit name": "%", "Numeric result": 100}
{"Compound": "CN(Cc1cnc2nc(N)nc(N)c2n1)c1ccc(C(=O)N[C@@H](CCC(=O)O)C(=O)N[C@@H](Cc2ccc(O)c(C3CCCC3)c2)C(=O)O)cc1 [Prodrug 13]", "Unit name": "%", "Numeric result": 100}
{"Compound": "CN(Cc1cnc2nc(N)nc(N)c2n1)c1ccc(C(=O)N[C@@H](CCC(=O)O)C(=O)N[C@@H](Cc2cccc(C3CCCC3)c2)C(=O)O)cc1 [Prodrug 9]", "Unit name": "%", "Numeric result": 100}
{"Compound": "Cc1nc2ccc3ccc(CNc4ccc(C(=O)N[C@@H](CCC(=O)O)C(=O)N[C@@H](CCC(=O)O)C(=O)O)c(F)c4)cc3c2c(=O)[nH]1 [Prodrug 1]", "Unit name": "%", "Numeric result": 97}

Task: Give its remaining at 2 h value. Item: CN(Cc1cnc2nc(N)nc(N)c2n1)c1ccc(C(=O)N[C@@H](CCC(=O)O)C(=O)N[C@@H](CC(=O)O)C(=O)O)cc1 [Prodrug 6]
Result: 98

Task: Give its remaining at 2 h value. Item: Cc1nc2ccc3ccc(CNc4ccc(C(=O)N[C@@H](CCC(=O)O)C(=O)N[C@@H](Cc5ccccc5I)C(=O)O)c(F)c4)cc3c2c(=O)[nH]1 [Prodrug 5]
Result: 96

Task: Give its remaining at 2 h value. Item: Cc1nc2ccc3ccc(CNc4ccc(C(=O)N[C@@H](CCC(=O)O)C(=O)N[C@@H](Cc5ccccc5C(=O)O)C(=O)O)c(F)c4)cc3c2c(=O)[nH]1 [Prodrug 4]
Result: 99

Task: Give its remaining at 2 h value. Item: CN(Cc1cnc2nc(N)nc(N)c2n1)c1ccc(C(=O)N[C@@H](CCC(=O)O)C(=O)N[C@@H](Cc2cccc(C(C)(C)C)c2)C(=O)O)cc1 [Prodrug 12]
Result: 21.6

Every entry's value here was drawn from patent US6319702A.
